Measured Population Healthy Nuclei (%) by item
tested on: U2OS; experiment: Multiplex assay against U2OS; format: toxicity, cell-based; conditions: human, 48 h, 1 µM, compound concentration 1 uM, replicate 2
reported_property: Population Healthy Nuclei (%)

> print(dat)
                                   compound  tested.system  numeric.readout
1  O=C(Cc1ccc(-c2ccc(OCCN3CCOCC3)cc2)cn1)NCc1ccccc1           U2OS               45
2  COc1cc(N2CCN(C)CC2)ccc1Nc1ncc2c(n1)N(C)c1ccccc1C(=O)N2C           U2OS               76
3  CCOc1cc(C(=O)N2CCC(N3CCN(C)CC3)CC2)ccc1Nc1ncc2c(n1)N(C1CCCC1)c1ccccc1C(=O)N2C           U2OS               72
4  CN1C2CCC1CC(OC(c1ccc(F)cc1)c1ccc(F)cc1)C2.Cl (stereo not drawn)           U2OS               97
5  CCOC(=O)c1c(C)[nH]c2ccc3c(c12)CN1CCc2cc(OC)ccc2C1O3 (stereo not drawn)           U2OS               81
6  CCN1CCN(Cc2ccc(Nc3ncc(F)c(-c4cc(F)c5nc(C)n(C(C)C)c5c4)n3)nc2)CC1.CS(=O)(=O)O           U2OS               51
7  C=C1/C(=C\C=C2/CCC[C@]3(C)[C@@H]([C@H](C)/C=C/[C@H](C)C(C)C)CC[C@@H]23)C[C@@H](O)C[C@@H]1O           U2OS               90
8  O=C(Nc1ccc(-c2ccnc(Nc3ccc(N4CCOCC4)cc3)n2)cc1)[C@@H]1CCCN1           U2OS               80

* * *

test system: U2OS; test: Multiplex assay against U2OS; type: toxicity, cell-based; conditions: human, 12 h, 10 µM, compound concentration 10 uM, replicate 1
Each record's class is read off its Population Fragmented Nuclei (%) using these ranges: range 1 = under 8%, range 2 = from 8% up to 20%, range 3 = 20% and over

> print(dat)
                                    molecule  tested.system    class
 1  CCN1CCN(c2ccc(Nc3cc(N(C)C(=O)Nc4c(Cl)c(OC)cc(OC)c4Cl)ncn3)cc2)CC1           U2OS  range 1
 2  CCOC(=O)c1c(C)[nH]c2ccc3c(c12)CN1CCc2cc(OC)ccc2C1O3 (stereo unspecified)           U2OS  range 2
 3  COc1cc2ncnc(Nc3ccc(F)c(Cl)c3)c2cc1NC(=O)/C=C/CN1CCCCC1 [DACOMITINIB ANHYDROUS]           U2OS  range 1
 4  CCn1cc(-c2ccnc3[nH]c(-c4cccc(CN(C)C)c4)cc23)c(-c2ccc(NC(=O)N(C)C)cc2)n1           U2OS  range 2
 5  NC(=O)c1cccc(-c2cc(Nc3ccc(OC(F)(F)F)cc3)ncn2)c1           U2OS  range 1
 6  CCCS(=O)(=O)c1nc(NC2CC2)cc(-c2ccc3c(ccn3C3CC(C)(C)NC(C)(C)C3)c2)n1           U2OS  range 3
 7  O=C(Nc1ccc(-n2nc(-c3cccnc3)cc2C(F)(F)F)cn1)c1ccc(-c2ccccc2)c(F)c1           U2OS  range 2
 8  CCc1cccc(CC)c1NC(=O)c1nn(C)c2c1CCc1cnc(Nc3ccc(N4CCN(C)CC4)cc3OC)nc1-2           U2OS  range 1
 9  CCOc1cc(C(=O)N2CCC(N3CCN(C)CC3)CC2)ccc1Nc1ncc2c(n1)N(C1CCCC1)c1ccccc1C(=O)N2C           U2OS  range 2
10  Cc1ccc(C(=O)Nc2cccc(C(F)(F)F)c2)cc1Nc1nc(-c2cccnc2)nc2c1cnn2C           U2OS  range 2
11  Cn1nc(C(=O)NCc2ccc(C(=O)O)cc2)cc1-c1ccc2[nH]ccc2c1           U2OS  range 1
12  COc1ccc(-c2ccc3c(N4CCOCC4)nc(N4C[C@@H](C)O[C@@H](C)C4)nc3n2)cc1CO           U2OS  range 3
13  COC(=N)c1nc2ccc3ncnc(Nc4ccc(OC)cc4F)c3c2s1           U2OS  range 1
14  O=C1NC(=O)C(c2cnc3ccccn23)=C1c1cn2c3c(cc(F)cc13)CN(C(=O)N1CCCCC1)CC2           U2OS  range 2
15  Cc1ccc2nc(NCCN)c3ncc(C)n3c2c1.O=C(O)C(F)(F)F.O=C(O)C(F)(F)F           U2OS  range 2
16  Cc1cn(-c2cc(NC(=O)c3ccc(C)c(Nc4nccc(-c5cccnc5)n4)c3)cc(C(F)(F)F)c2)cn1           U2OS  range 3
17  S=C(NCCCc1c[nH]cn1)NCCCN(Cc1ccc(Cl)c(Cl)c1)c1ccc(Br)cn1           U2OS  range 3
18  CNC(=O)c1ccc(Nc2nc(OC3CCCC3)c3c(-c4ccc5nc(C)oc5c4)c[nH]c3n2)c(OC)c1           U2OS  range 1
19  COc1cccc2cc(-c3nc([C@H]4CC[C@H](C(=O)O)CC4)n4ncnc(N)c34)[nH]c12           U2OS  range 1
20  CCCn1c(=O)c2[nH]c(-c3cnn(Cc4cccc(C(F)(F)F)c4)c3)nc2n(CC)c1=O           U2OS  range 3
21  COc1cc(N2CCN(C)CC2)ccc1Nc1ncc2c(n1)N(C)c1ccccc1C(=O)N2C           U2OS  range 2
22  CCN1CCN(Cc2ccc(Nc3ncc(F)c(-c4cc(F)c5nc(C)n(C(C)C)c5c4)n3)nc2)CC1.CS(=O)(=O)O           U2OS  range 3
23  COCC(=O)NC/C=C/c1ccc2ncnc(Nc3ccc(Oc4ccc(C)nc4)c(C)c3)c2c1           U2OS  range 2
24  C=CCn1c(=O)c2cnc(Nc3ccc(N4CCN(C)CC4)cc3)nc2n1-c1cccc(C(C)(C)O)n1           U2OS  range 3
